For each of the binders below, state its IC50.
target.or.system: T1, PILRA Fc (soluble human PILRA) (human, UniProt Q9UKJ1 20-197, limits assumed)
T1 construct: also called soluble PILRA; not shown: Fc part, detected with anti-human IgG
T1 sequence (Q9UKJ1 20-197 limits assumed): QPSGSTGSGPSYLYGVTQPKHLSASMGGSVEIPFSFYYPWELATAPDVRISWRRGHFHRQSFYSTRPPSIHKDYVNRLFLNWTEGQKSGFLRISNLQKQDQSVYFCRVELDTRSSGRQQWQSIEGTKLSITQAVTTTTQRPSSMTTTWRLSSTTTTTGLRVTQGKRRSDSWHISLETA
protocol.text: flow cytometry; blocking of PILRA Fc binding to human CD3+ T cells (Donor 1019)
Answers are plain numbers, in µg/mL.

binder | meas.value
D7 (antibody, V domains shown, second hybridoma campaign) VH: QVQLKESGPGLVAPSQSLSITCTVSGFSLTSYAISWVRQPPGKGLEWLGIIWTGGDTNYNSGLKSRLSITKDNSKSQVFLKMNSLQTDDTSRYYCARNSLFYGITPYYFDYWGQGTTLTVSS VL: DIVLTQSPATLSVTPGDSVSLSCRASQSIRNDLHWYQQKSHESPRLLIKYASQSISGIPSRFSGSGSGTDFTLTINVLETEDFGMYFCQQSNGWPLTFGAGTKLELK | 5.75
D4 (antibody, V domains shown, second hybridoma campaign) VH: QVQLQQSGADLARPGASVKLSCKASGYTFTSYGIAWMKQRTGQGLEWIGEIYPRSGNPYYNDRFKGKATLTADRSSNTTYMELRSLTSEDSAVYFCARWVGGIIDYWGQGTSVTVSS VL: DIVMTQSQKFMSTSIGDRVSVTCKASQNVGFNVAWYQQKPGQSPKPLIYSASYRYSGVPDRFTGSESGTEFTLIISNVQSEDLAEYFCQQYDSYPFTFGSGTNLEIK | 3.77

Exercise: What value of IC50 has been recorded for this entry: D6 (antibody, V domains shown, second hybridoma campaign; same VH/VL as D8) VH: EVQLQQSGPELVKPGASVKMSCKASGYTFTDYYMDWVKQSHGESFEWIGRVNPYTGDSSYNQKFKGKATLTVDKSSNTAYLEFNSLTSEGSAVYYCARSDGYHYKYAMDYWGQGTSVTVSS VL: DVVMTQTPLSLPVSLGDQASISCRSSQSLVHSTGNTYLHWYLQKPGQSPNLLIYKISNRFSGVPDRFSGSGSGTDFTLKISRVEAEDLGVYFCSQSTHVPYTFGGGTKLEIK
Key: 3.13

The reported measurements were obtained from patent US20240425587A1.
